These measurements were taken from paper PMC12520410.

Biological target: AbFtsZ (A. baumannii FtsZ) (Acinetobacter baumannii)
Experiment: fluorescence anisotropy titration of RUP2 with purified AbFtsZ
Type: binding
measured-parameter: Kd (nM)
Give just the number in nM; leave the unit off.

Entry NC(=O)c1c(F)ccc(OC(CCO)c2nc(-c3ccc(C(F)(F)F)cc3)c(Br)o2)c1F (stereo not shown) has what Kd? 230

====

Target: UniProt:Q76HJ9
Sequence (Q76HJ9 entry or part of it): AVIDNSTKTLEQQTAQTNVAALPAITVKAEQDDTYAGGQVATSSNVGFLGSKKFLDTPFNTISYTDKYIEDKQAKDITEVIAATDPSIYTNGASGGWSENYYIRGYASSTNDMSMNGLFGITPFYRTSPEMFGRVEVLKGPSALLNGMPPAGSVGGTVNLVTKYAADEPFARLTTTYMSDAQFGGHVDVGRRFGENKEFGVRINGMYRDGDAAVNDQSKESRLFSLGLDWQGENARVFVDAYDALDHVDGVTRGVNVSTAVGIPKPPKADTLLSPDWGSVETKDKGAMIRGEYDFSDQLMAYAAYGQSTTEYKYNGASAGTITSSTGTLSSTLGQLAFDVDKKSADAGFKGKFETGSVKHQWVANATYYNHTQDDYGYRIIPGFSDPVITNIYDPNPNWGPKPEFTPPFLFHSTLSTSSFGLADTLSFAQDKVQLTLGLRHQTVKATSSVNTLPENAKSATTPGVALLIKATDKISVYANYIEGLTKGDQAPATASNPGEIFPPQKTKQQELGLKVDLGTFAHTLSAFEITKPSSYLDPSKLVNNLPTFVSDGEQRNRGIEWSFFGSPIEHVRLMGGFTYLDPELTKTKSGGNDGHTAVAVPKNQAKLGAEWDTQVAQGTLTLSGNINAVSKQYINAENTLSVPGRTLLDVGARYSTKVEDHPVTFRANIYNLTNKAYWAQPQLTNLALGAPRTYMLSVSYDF
Assay: fluorescence anisotropy titration of the RUP7_2-Fe3+ complex with purified BauA
Assay type: binding
measured-parameter: Kd (nM)
Give just the number in nM; leave the unit off.

Entry C[C@@H]1ON(CCc2cn(CCC(Oc3ccc(F)c(C(N)=O)c3F)c3nc(-c4ccc(C(F)(F)F)cc4)c(Br)o3)cn2)C(=O)[C@H]1NC(=O)c1cccc(O)c1O (stereo partly shown) has what Kd? 1800

====

Molecular target: AbFtsZ (A. baumannii FtsZ) (Acinetobacter baumannii, UniProt V5V8B6)
Sequence (V5V8B6 entry or part of it): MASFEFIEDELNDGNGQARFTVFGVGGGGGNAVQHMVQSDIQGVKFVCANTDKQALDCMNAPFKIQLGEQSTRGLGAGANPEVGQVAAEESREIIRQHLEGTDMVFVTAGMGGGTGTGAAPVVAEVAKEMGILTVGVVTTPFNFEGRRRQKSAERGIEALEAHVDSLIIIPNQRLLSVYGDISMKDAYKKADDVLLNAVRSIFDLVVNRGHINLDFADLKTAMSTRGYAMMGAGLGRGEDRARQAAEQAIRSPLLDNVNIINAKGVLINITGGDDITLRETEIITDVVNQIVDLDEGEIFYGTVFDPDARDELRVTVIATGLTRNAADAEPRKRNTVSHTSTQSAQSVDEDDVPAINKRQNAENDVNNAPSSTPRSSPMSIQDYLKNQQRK
Assay: fluorescence anisotropy titration; also inhibits GTP-dependent polymerization (light scattering)
Assay type: binding
measured-parameter: pKd
Here pKd is given on a logarithmic scale as minus log10 of the concentration in mol/L.

Entry C[C@@H]1ON(CCc2cn(CCC(Oc3ccc(F)c(C(N)=O)c3F)c3nc(-c4ccc(C(F)(F)F)cc4)c(Br)o3)cn2)C(=O)[C@H]1NC(=O)c1cccc(O)c1O (stereo partly shown) has what pKd? 4.58
